meta.source: PubChem BioAssay (NCI)

system: UO-31 renal; test: NCI tumour cell line growth inhibition, 48 h; in the data active means GI50 below about 0.43 µM; inactive means the rest
Parameter call: string, one of active, inactive

## Task Per the assay record, what outcome was assigned to CCC(c1ccccc1)c1noc(CCN(CC)CC)n1 (stereo unspecified) ?
## Result inactive

New cases:
## Task Per the assay record, what outcome was assigned to [O]=[V]([OH])([OH])[OH] ?
## Result inactive

====

test system: K-562 leukemia; assay: NCI tumour cell line growth inhibition, 48 h; in the data active = GI50 below about 0.43 µM; inactive = the rest
Parameter call: string, one of active, inactive

Observe how each entry below is paired with its result.
## Task Per the assay record, what outcome was assigned to ClCCOCCn1cnc2c(Cl)nc(Cl)nc21 ?
## Result inactive

## Task Per the assay record, what outcome was assigned to COc1cc([C@@H]2c3cc4c(cc3[C@@H](Nc3ccc(NC(=O)c5cc([N+](=O)[O-])cn5C)cc3)[C@H]3COC(=O)[C@H]23)OCO4)cc(OC)c1O ?
## Result active

## Task Per the assay record, what outcome was assigned to CC(=O)Oc1ccc(C2=Cc3ccc(OC(C)=O)cc3OC2C)cc1 (stereo unspecified) ?
## Result inactive

## Task Per the assay record, what outcome was assigned to COc1ccc(-c2nc3ccc(Cc4ccc5nc(-c6ccc(OC)cc6)[nH]c5c4)cc3[nH]2)cc1 ?
## Result active

## Task Per the assay record, what outcome was assigned to Cc1cc(Cl)nc(N(CCNc2ccnc3cc(Cl)ccc23)Cc2ccco2)n1 ?
## Result inactive

New cases:
## Task Per the assay record, what outcome was assigned to OCCCCC#Cc1ccccc1C#Cc1cccc(C(F)(F)F)c1 ?
## Result inactive

## Task Per the assay record, what outcome was assigned to CSc1nc2nc(-c3ccccc3)c(C)c-2c2n1C(C)C(=O)N2 (stereo unspecified) ?
## Result inactive

## Task Per the assay record, what outcome was assigned to [O]=[V]([OH])([OH])[OH] ?
## Result inactive

## Task Per the assay record, what outcome was assigned to CNCc1ccc(-c2cc(-c3nc(-c4ccc(S(=O)(=O)C(C)C)cc4)cnc3N)on2)cc1 ?
## Result inactive

## Task Per the assay record, what outcome was assigned to CCCCCCCCCCCC[C@@H](O)[C@H]1CC[C@H]([C@H](O)CC[C@H](O)[C@@H]2CC[C@@H](CCCCCCCC3=C[C@H](C)OC3=O)O2)O1 ?
## Result inactive

## Task Per the assay record, what outcome was assigned to Cc1cc(Br)c(NC(=O)c2c(-c3c(Cl)cccc3Cl)noc2C)c(Br)c1 ?
## Result inactive

====

tested on: MOLT-4 leukemia; test: NCI tumour cell line growth inhibition, 48 h; in the data active = GI50 below about 0.43 µM; inactive = the rest
Parameter call: string, one of 1 (active), 0 (inactive)

Observe how each entry below is paired with its result.
## Task Per the assay record, what outcome was assigned to Cc1ccc(NC(=O)c2cc(S(=O)(=O)Nc3nnc(-c4ccccc4)c(-c4ccccc4)n3)c(SCc3ccccc3)cc2Cl)cc1 ?
## Result 0

## Task Per the assay record, what outcome was assigned to O=C(O)CN(CCN(CC(=O)O)CC(=O)O)CC(=O)O.[Mn+2] ?
## Result 0

## Task Per the assay record, what outcome was assigned to CN(C)c1ccc(-c2cc(-c3ccc(Nc4nc(Nc5ccc(Cl)cc5)nc(Nc5ccc(Cl)cc5)n4)cc3)nc(N)c2C#N)cc1 ?
## Result 0

## Task Per the assay record, what outcome was assigned to C=C(CN1CCc2[nH]c3ccc(F)cc3c2C1)c1ccc(C(=O)Nc2ccccc2N)cc1 ?
## Result 0

// next entry
## Task Per the assay record, what outcome was assigned to OCCCCC#Cc1ccccc1C#Cc1cccc(C(F)(F)F)c1 ?
## Result 0
